experiment: qHTS assay to identify small molecule antagonists of the androgen receptor (AR) signaling pathway using the MDA cell line - cell viability counter screen (AID 743041; note: nearly all actives have a fitted effect of over 45% in size); settings: MDA-kb2 viability, CellTiter-Fluor, 16 h, cells co-treated with R1881 androgen agonist; series mostly up to 70.3 µM
Inconclusive results are not listed. The source made the active and inactive calls. Calls come from the whole dose curve; as a rule, active = well fitted cell-killing curve with a large enough effect in the repeat runs; inconclusive = weak or mixed curves, or effect the other way; inactive = flat fitted curve, though single readings scatter.
Please answer using one outcome listed in label 1 (active), label 0 (inactive)

Recorded results for 10 compounds are shown here.
[[record]]
compound = "CN1[C@@H]2CC[C@@H]1CC(OC(=O)C(CO)c1ccccc1)C2 (stereo not given in full)"
class = "label 0"

[[record]]
compound = "CCCCCCCCCCCCN(CCO)CCO"
class = "label 1"

[[record]]
compound = "C=C(C)C(=O)OCCC[Si](Cl)(Cl)Cl"
class = "label 0"

[[record]]
compound = "CCN(CC)CCCN(c1ccccc1)C1Cc2ccccc2C1"
class = "label 1"

[[record]]
compound = "C(=C/c1ccccc1)/c1ccccc1"
class = "label 0"

[[record]]
compound = "CSc1ccc2c(c1)N(CCC1CCCCN1C)c1ccccc1S2 (stereo not given)"
class = "label 0"

[[record]]
compound = "O=C1Nc2ccc(Cl)cc2[C@@](C#CC2CC2)(C(F)(F)F)O1"
class = "label 0"

[[record]]
compound = "CC(C)(C)C1=CC(=O)C=C(C(C)(C)C)C1=O"
class = "label 0"

[[record]]
compound = "O=C1OC(OC(=O)c2cccnc2Nc2cccc(C(F)(F)F)c2)c2ccccc21 (stereo not given)"
class = "label 0"

[[record]]
compound = "C=CCCCCCCC=C"
class = "label 0"


Lab note: next compound to report on.
-- ask Just curious, what result did "O=C1C=CC(=O)N1c1ccccc1" get here?
-- reply label 1

###

test: A CellTox Green Cytotoxicity Assay to monitor cytotoxicity in HepG2 cells - 8 hour (AID 1224890); settings: CellTox Green fluorescence; series mostly up to 76.8 µM; note: % is set by controls: 0 for no effect and ±100 for the full control effect; nearly all actives have a fitted effect of over 45% in size
Results filed as inconclusive are left out. Active and inactive are the calls of the source. Calls follow the shape of the dose curve; as a rule, active = well fitted activation curve with a large enough effect in the repeat runs; inconclusive = weak or mixed curves; inactive = flat fitted curve, though single readings scatter.
// classify into active, inactive

Example entries and their recorded answers appear below.
[[record]]
molecule = "CSc1c(Cl)c(Cl)c(Cl)c(Cl)c1Cl"
class = "inactive"

[[record]]
molecule = "O=C(c1ccccc1)c1cc(Cl)ccc1O"
class = "inactive"

[[record]]
molecule = "Clc1cccnc1"
class = "inactive"

[[record]]
molecule = "C/C=C/C(=O)C1=C(C)CCCC1(C)C"
class = "inactive"


-- ask Lab log entry: "CC1CCCCC1" — outcome as called in the assay?
-- reply inactive

-- ask Dear all, I need the recorded test outcome for "Clc1nc2ccccc2s1" , thank you.
-- reply inactive

-- ask Assay outcome for "CC[N+](CC)(CC)Cc1ccccc1" : what was it?
-- reply inactive

-- ask Hi, do you know how "C=CCCCCCCC=C" came out in this test?
-- reply inactive

-- ask Write down the call the test reported for this molecule. Item: "CCCCCCCC/C=C\CCCCCCCC(=O)NCc1ccc(O)c(OC)c1"
-- reply inactive

-- ask # outcome recorded in this test, key = "CC1=C(/C=C/C(C)=C/C=C/C(C)=C/C(=O)Nc2ccc(O)cc2)C(C)(C)CCC1"
-- reply inactive

-- ask I'd appreciate the recorded outcome for "C=CC(=O)OCCN(CC)CC" from this test.
-- reply inactive

-- ask What did this assay record as the result for "Nc1cc(Cl)c([N+](=O)[O-])cc1O" ?
-- reply inactive

###

assay: qHTS assay to test for compound auto fluorescence at 535 nm (green) in HepG2 cells (AID 720675); conditions: green autofluorescence 485/535 nm, 1 h; series mostly up to 91.3 µM; note: % is set by controls: 0 for no effect and ±100 for the full control effect
The source made the active and inactive calls. Calls follow the shape of the dose curve; as a rule, active = well fitted curve in the direction sought with a large enough effect in the repeat runs; inconclusive = weak or mixed curves; inactive = flat fitted curve, though single readings scatter.
OBSERVABLE: fluorescence, % of fluorescein control

[[record]]
molecule = "CN(C)CCCN1c2ccccc2Sc2ccc(C(F)(F)F)cc21"
observable = "fluorescence, % of fluorescein control"
result = "inactive"

[[record]]
molecule = "CCCCCCCC/C=C\\CCCCCCCC(=O)NCc1ccc(O)c(OC)c1"
observable = "fluorescence, % of fluorescein control"
result = "inactive"

[[record]]
molecule = "NC1(c2ccc(-c3nc4ccn5c(=O)[nH]nc5c4cc3-c3ccccc3)cc2)CCC1"
observable = "fluorescence, % of fluorescein control"
result = "inactive"

[[record]]
molecule = "CC(CN(C)C)CN1c2ccccc2CCc2ccccc21 (stereo unspecified)"
observable = "fluorescence, % of fluorescein control"
result = "-0.198% [at 18.6 µM] (inactive)"

[[record]]
molecule = "CCN(CC)CCCN(c1ccccc1)C1Cc2ccccc2C1"
observable = "fluorescence, % of fluorescein control"
result = "inactive"


Here is another molecule to look at.
-- ask Give me measured fluorescence, % of fluorescein control, please, for this molecule: "S=P(N1CC1)(N1CC1)N1CC1"
-- reply inactive

###

test: qHTS assay to identify small molecule agonists of the estrogen related receptor (ERR) signaling pathway from Tox21 library (AID 1224849); details: ERR reporter cell line, ONE-Glo luciferase, 18 h; at 92.4 µM (top of the series) unless noted; note: % is set by controls: 0 for no effect and ±100 for the full control effect; nearly all actives have a fitted effect of over 15% in size
Measured activity change, positive = activation, listed per entry for reference.
Hi! Could you send only the number? It should be in %, unit omitted.

As a guide, the following entries are already answered.
[[record]]
molecule = "CCO[Si](C)(C)OCC"
quantitative_readout = -0.643

[[record]]
molecule = "CCC(C)c1cc([N+](=O)[O-])cc([N+](=O)[O-])c1OC(=O)OC(C)C (stereo unspecified)"
quantitative_readout = -53.4

[[record]]
molecule = "CC(C)(C)c1n[nH]c(=O)n(N)c1=O"
quantitative_readout = -7.06

[[record]]
molecule = "CCN(CC)c1ccc(N)cc1"
quantitative_readout = -77.3

[[record]]
molecule = "C[C@@H]1CC[C@H]2C(C)(C)[C@H]3C[C@@]12CC[C@@]3(C)O"
quantitative_readout = -6.53


Turning now to a further record.
-- ask Quickly give me recorded activity change, positive = activation for "C=CC(=O)OCCOCC(CC)(COCCOC(=O)C=C)COCCOC(=O)C=C"
-- reply -76.5

###

Target: Estrogen receptor beta (Homo sapiens) (UniProt Q92731)
Sequence (Q92731 whole entry, looked up): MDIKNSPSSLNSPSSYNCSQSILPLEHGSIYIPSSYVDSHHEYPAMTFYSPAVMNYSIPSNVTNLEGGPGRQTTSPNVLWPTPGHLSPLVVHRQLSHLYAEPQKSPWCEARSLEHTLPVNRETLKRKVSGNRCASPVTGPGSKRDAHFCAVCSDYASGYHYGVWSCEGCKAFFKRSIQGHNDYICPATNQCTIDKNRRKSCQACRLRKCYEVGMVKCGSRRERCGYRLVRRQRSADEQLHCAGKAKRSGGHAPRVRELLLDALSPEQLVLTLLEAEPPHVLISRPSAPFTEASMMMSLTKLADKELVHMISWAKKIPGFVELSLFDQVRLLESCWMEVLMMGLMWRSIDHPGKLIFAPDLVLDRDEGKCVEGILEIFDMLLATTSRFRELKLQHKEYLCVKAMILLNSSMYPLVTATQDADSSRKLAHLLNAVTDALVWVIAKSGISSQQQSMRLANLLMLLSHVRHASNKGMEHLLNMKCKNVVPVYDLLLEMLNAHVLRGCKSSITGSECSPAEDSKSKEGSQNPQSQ
Assay: qHTS assay to identify small molecule antagonists of the estrogen receptor beta (ER-beta) signaling pathway (AID 1259378); note: potency is the fitted concentration of half-maximal effect
Details: ER-beta-UAS-bla HEK293T, beta-lactamase FRET ratio, 16 h; series mostly up to 92.4 µM
Text: National Center for Advancing Translational Sciences [NCATS] NIH Chemical Genomics Center [NCGC] U.S. Environmental Protection Agency [EPA] National Institutes of Environmental Health Sciences [NIEHS] National Toxicology Program [NTP] U.S. Food and Drug Administration [FDA] Estrogen receptor (ER), a nuclear hormone receptor, plays an important role in development, metabolic homeostasis and reproduction. […]
Inconclusive results are not listed. Calls of active or inactive are those of the source. Calls follow the shape of the dose curve; as a rule, active = well fitted inhibition curve with a large enough effect in the signal ratio in the repeat runs (not every such curve was filed as active); inconclusive = weak or mixed curves, or effect the other way; inactive = no such curve, though single readings can be large or run the other way; the % refers to the signal ratio.
OBSERVABLE: Potency

Consider the worked cases shown below.
[[record]]
molecule = "Cc1cccc(N(C)C)c1"
result = "inactive"

[[record]]
molecule = "Cc1cnccn1"
result = "inactive"

[[record]]
molecule = "Cc1ccc(-n2[nH]c(C)c(N=Nc3cccc(-c4cccc(C(=O)O)c4)c3O)c2=O)cc1C"
result = "8.41 µM (active)"

[[record]]
molecule = "O=C1NCN(c2ccccc2)C12CCN(CCCC(c1ccc(F)cc1)c1ccc(F)cc1)CC2"
result = "18.8 µM (active)"

[[record]]
molecule = "C=CC(=O)OCC(O)COc1ccccc1 (centres undefined)"
result = "inactive"

[[record]]
molecule = "CC(=O)C=O"
result = "inactive"

[[record]]
molecule = "CN(C)c1ccc(N=Nc2ccccc2C(=O)O)cc1"
result = "15.4 µM (active)"

[[record]]
molecule = "Cc1cc(Nc2ccc(O)cc2)ccc1N"
result = "inactive"

[[record]]
molecule = "Cc1cn[nH]c1"
result = "inactive"

[[record]]
molecule = "CCc1ccc(O)c(C(C)(C)C)c1"
result = "inactive"


-- ask Given "CCCCNc1c(C(=O)OCC)c(C)nc2c1cnn2CC" , respond with its Potency.
-- reply inactive

-- ask Could you please provide reported Potency for CCCC(O)C(O)CO (centres undefined) ? Thanks!
-- reply inactive

-- ask Identify measured Potency associated with Clc1ccc(C(c2ccccc2Cl)C(Cl)Cl)cc1 (centres undefined)
-- reply 19.3 µM (active)

-- ask Consider the molecule "S=C(SSSSSSC(=S)N1CCCCC1)N1CCCCC1" . State its measured Potency.
-- reply 13.4 µM (active)

###

Molecular target: Nuclear receptor subfamily 1 group I member 2 (Homo sapiens) (UniProt O75469)
Sequence (O75469 whole entry, looked up): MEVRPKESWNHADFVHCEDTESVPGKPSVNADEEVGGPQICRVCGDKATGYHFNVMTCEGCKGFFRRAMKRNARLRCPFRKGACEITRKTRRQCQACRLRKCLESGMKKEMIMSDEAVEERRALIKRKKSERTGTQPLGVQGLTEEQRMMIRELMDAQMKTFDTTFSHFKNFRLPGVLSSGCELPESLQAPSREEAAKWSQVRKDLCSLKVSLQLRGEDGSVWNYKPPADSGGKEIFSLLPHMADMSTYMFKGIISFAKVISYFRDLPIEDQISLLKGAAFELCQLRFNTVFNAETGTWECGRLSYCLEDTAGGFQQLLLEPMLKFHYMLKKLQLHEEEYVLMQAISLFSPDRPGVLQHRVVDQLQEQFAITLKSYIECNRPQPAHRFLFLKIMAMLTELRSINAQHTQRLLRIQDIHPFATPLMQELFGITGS
Assay: Human pregnane X receptor (PXR) small molecule agonists, qHTS assay (AID 1346982); note: nearly all actives have a fitted effect of over 35% in size; note: potency is the fitted concentration of half-maximal effect; for activation: % is set by controls: 0 for no effect and ±100 for the full control effect
Settings: PXR-Luc HepG2, CYP3A4 luciferase reporter, 24 h; series mostly up to 92.4 µM
Text: National Center for Advancing Translational Sciences [NCATS] NIH Chemical Genomics Center [NCGC] U.S. Environmental Protection Agency [EPA] National Institutes of Environmental Health Sciences [NIEHS] National Toxicology Program [NTP] The human pregnane X receptor (hPXR) regulates the expression of several drug metabolizing enzymes and induction of these proteins is a major mechanism for developing drug resistance in cancer. […]
Inconclusive results are not listed. Activity calls are given as the source filed them. The call rests on the fitted dose curve; in most records, active means well fitted activation curve with a large enough effect in the repeat runs; inconclusive means weak or mixed curves; inactive means no such curve, though single readings can be large or run the other way.
OBSERVABLE: Potency

[[record]]
molecule = "COCC(=O)O[C@]1(CCN(C)CCCc2nc3ccccc3[nH]2)CCc2cc(F)ccc2[C@@H]1C(C)C"
assay_target = "Nuclear receptor subfamily 1 group I member 2 (Homo sapiens) (UniProt O75469)"
observable = "Potency"
result = "1.68 µM (active)"

[[record]]
molecule = "CCOB(OCC)OCC"
assay_target = "Nuclear receptor subfamily 1 group I member 2 (Homo sapiens) (UniProt O75469)"
observable = "Potency"
result = "inactive"

[[record]]
molecule = "Clc1ccc(C(c2ccccc2Cl)C(Cl)Cl)cc1 (configuration not stated)"
assay_target = "Nuclear receptor subfamily 1 group I member 2 (Homo sapiens) (UniProt O75469)"
observable = "Potency"
result = "10.9 µM (active)"

[[record]]
molecule = "NC(=O)c1nc(-c2cccc(-c3cc(F)ccc3OCC(F)(F)C(F)(F)F)c2)n[nH]1"
assay_target = "Nuclear receptor subfamily 1 group I member 2 (Homo sapiens) (UniProt O75469)"
observable = "Potency"
result = "61.1 µM (active)"

[[record]]
molecule = "CC(C)(C)CC(C)(C)c1ccccc1O"
assay_target = "Nuclear receptor subfamily 1 group I member 2 (Homo sapiens) (UniProt O75469)"
observable = "Potency"
result = "21.8 µM (active)"

[[record]]
molecule = "Cc1ccc(-n2[nH]c(C)c(N=Nc3cccc(-c4cccc(C(=O)O)c4)c3O)c2=O)cc1C"
assay_target = "Nuclear receptor subfamily 1 group I member 2 (Homo sapiens) (UniProt O75469)"
observable = "Potency"
result = "inactive"


-- ask Please give measured Potency of the following entry: "C=C(c1ccc(C(=O)O)cc1)c1cc2c(cc1C)C(C)(C)CCC2(C)C"
-- reply inactive
